Below, each entry is listed with its recorded ED50.
tested on: maximal electroshock seizure (MES); test: maximal electroshock seizure; format: in vivo, mice; conditions: Mus musculus, ip, read-out: MES, ED50

# count of solved cases: 4
Given COCC(NCc1ccc(OCc2cccc(F)c2)cc1)C(N)=O (racemic) [(R,S)-74] , state its recorded ED50. 30 to 100 mg/kg

Follow-up item: COC[C@H](NC(C)=O)C(=O)NCc1ccc(OCc2cccc(F)c2)cc1 [(S)-10] > 300 mg/kg

Follow-up item: COC[C@@H](NC(C)=O)C(=O)NCc1ccc(Oc2cccc(F)c2)cc1 [(R)-12] < 30 mg/kg

Follow-up item: COC[C@@H](NC(C)=O)C(=O)NCc1ccc(OCc2ccccc2)cc1 [(R)-20] < 3 mg/kg

***
Given NC(=O)C(NCc1ccc(OCc2cccc(F)c2)cc1)c1ccco1.O=C(O)C(=O)O (racemic) [(R,S)-75] , state its recorded ED50. 10 to 30 mg/kg

These measurements were taken from paper PMC2867451.
